# Tested on: rice
# Experiment description: Test C flooded paddy test
# Assay type: in vivo, Oryza sativa
# Details: 125 g ai/ha, scale 0 to 100 (0 no effect, 100 complete control)
Measurement label: Rice plant response rating
The response must contain the number and no unit.

{"Compound": "CCc1nn(C(C)(C)C)nc1C(=O)Nc1cccc(C(=S)N(C)C)c1 [Compound 395]", "Measurement label": "Rice plant response rating", "Measured result": 70}
{"Compound": "C#CCNC(=O)c1cccc(NC(=O)c2nn(C(C)(C)C)nc2C)c1 [Compound 394]", "Measurement label": "Rice plant response rating", "Measured result": 0}
{"Compound": "CCc1nc(C(C)(C)C)sc1C(=O)Nc1cccc(C(=O)N(C)C)c1 [Compound 228]", "Measurement label": "Rice plant response rating", "Measured result": 80}
{"Compound": "CCN(C)C(=O)c1cncc(NC(=O)c2cc(C(C)(C)C)nn2CC)c1 [Compound 263]", "Measurement label": "Rice plant response rating", "Measured result": 0}
{"Compound": "CCc1nn(C(C)(C)C)nc1C(=O)Nc1cccc(C(=O)N(C)CC)c1 [Compound 384]", "Measurement label": "Rice plant response rating", "Measured result": 65}
{"Compound": "C=CCNC(=O)c1ccc(F)c(NC(=O)c2nn(C(C)(C)C)nc2CC)c1 [Compound 383]", "Measurement label": "Rice plant response rating", "Measured result": 5}

Q: Given CCn1nc(C(C)(C)C)cc1C(=O)Nc1cc(C(=O)N2CC=CC2)ccn1 [Compound 142] , state its recorded Rice plant response rating.
Ans: 70

Q: Entry CCNC(=O)c1ccc(OC)c(NC(=O)c2cc(C(C)(C)C)nn2CC)n1 [Compound 266] please
Ans: 10

Q: Entry C=CCN(C)C(=O)c1cccc(NC(=O)c2cc(C(C)(C)C)nn2CC)c1 [Compound 285] please
Ans: 40
